Could you please report measured TGI for the items listed next?
- Test system: LOX IMVI melanoma
- Assay Summary: NCI tumour cell line growth inhibition, 48 h
Where a SMILES comes first, the peptide text is derived from it. The star is where a group is joined. Cbz = O=C(OCc1ccccc1)*

CN(O)C(=O)Cc1ccccc1    > 100 µM
CCOC(=O)C(C)NC(=O)C(C)NC(=O)C(C)NC(=O)C(C)NC(=O)C(C)NC(=O)C(C)NC(=O)C(C)NC(=O)OCc1ccccc1 (stereo not drawn) (Cbz-AAAAAAA-OEt; configuration not given here)    > 100 µM

Kindly review the next molecule as well.
Noted for COc1ccc2c(c1)c1cc(OC)ccc1n2CCCCOc1ccc(-c2c3ccccc3c(-c3ccc(OCCCCn4c5ccc(OC)cc5c5cc(OC)ccc54)cc3)c3ccccc23)cc1 : its TGI reads > 100 µM
